System: male rats
Protocol details: Plasma metabolite profiling (GC-MS, LC-MS, SPE-LC-MS) in male rats dosed once daily over 28 days (OECD 407)
Format: in vivo, rat
Run parameters: male rats, plasma, high dose, day 7
Description: Each dose group in the studies consisted of five rats per sex. Additional groups of each 5 male and female animals served as controls. […] All animals of the animal population were kept under the same constant temperature (20-24±3° C.) and the same constant humidity (30-70%). The animals of the animal population were fed ad libitum. […] Steroids and their metabolites were measured by online SPE-LC-MS (Solid phase extraction-LC-MS). […]
Would you kindly list Heptadecanoic acid (C17:0), ratio versus control for each of these molecules?
Form rule: numeric answer, no unit written next to it.

Challenge: Read off the recorded Heptadecanoic acid (C17:0), ratio versus control for `CC(=O)O[C@]1(C(C)=O)CC[C@H]2[C@@H]3C[C@H](C)C4=CC(=O)CC[C@]4(C)[C@H]3CC[C@@]21C`
Response given: 0.98

Challenge: Read off the recorded Heptadecanoic acid (C17:0), ratio versus control for O=P1(NCCCl)OCCCN1CCCl (centres unmarked) [Ifosfamide]
Response given: 0.94

---

System: male rats
Protocol details: Plasma metabolite profiling (GC-MS, LC-MS, SPE-LC-MS) in male rats dosed once daily over 28 days (OECD 407)
Assay type: in vivo, rat
Run parameters: m14; high dose; Table 14b
Structures can show the parent of a compound that is named as a salt.
Metric name: Choline plasmalogen No 02

Challenge: Read off the recorded Choline plasmalogen No 02 for CC/C(=C(\c1ccccc1)c1ccc(OCCN(C)C)cc1)c1ccccc1 [Tamoxifen]
Response given: 0.6

Challenge: Read off the recorded Choline plasmalogen No 02 for C[C@]12C=CC3=C4CCC(=O)C=C4CCC3C1CC[C@@H]2O (stereo partly drawn) [Trenbolone]
Response given: 0.52

Challenge: Read off the recorded Choline plasmalogen No 02 for O=C(c1ccc(OCCN2CCCCC2)cc1)c1c(-c2ccc(O)cc2)sc2cc(O)ccc12 [Raloxifene Hydrochloride]
Response given: 0.69

Challenge: Read off the recorded Choline plasmalogen No 02 for C#C[C@]1(O)CC[C@H]2[C@@H]3CCc4cc(O)ccc4[C@H]3CC[C@@]21C [17-alpha-Ethynylestradiol]
Response given: 0.46

Challenge: Read off the recorded Choline plasmalogen No 02 for OCCNCCO [Diethanolamine]
Response given: 0.68

Challenge: Read off the recorded Choline plasmalogen No 02 for C[C@]12CCC(=O)C=C1CC[C@@H]1[C@@H]2CC[C@@]2(C)[C@H]1CC[C@]2(C)O [17-alpha-Methyltestosterone]
Response given: 0.64

---

Would you kindly list alpha-Tocopherol, ratio versus control for each of these compounds?
System: male rats
Protocol details: Plasma metabolite profiling (GC-MS, LC-MS, SPE-LC-MS) in male rats dosed once daily over 28 days (OECD 407)
Format: in vivo, rat
Run parameters: male rats, plasma, high dose, day 14
Marks after values point to notes of the source that are not given here.

Challenge: Read off the recorded alpha-Tocopherol, ratio versus control for `C[C@@H]1CC2=CC(=O)CC[C@@H]2[C@H]2CC[C@@]3(C)[C@@H](CC[C@]3(C)O)[C@@H]21`
Response given: 0.33 *

Challenge: Read off the recorded alpha-Tocopherol, ratio versus control for CC(=O)O[C@]1(C(C)=O)CC[C@H]2[C@@H]3C=C(Cl)C4=CC(=O)[C@@H]5C[C@@H]5[C@]4(C)[C@H]3CC[C@@]21C [Cyproteron Acetate]
Response given: 1.32 *

Challenge: Read off the recorded alpha-Tocopherol, ratio versus control for `Cn1cc[nH]c1=S`
Response given: 3.65 *
